# Target: Carbonic anhydrase 2 (Homo sapiens, UniProt P00918)
Listing of entries alongside the reported log10 IC50.
Lab note - IC50 converted to log10 from values in nM.

Use the examples below as a reference point.
Molecule	Reported
NS(=O)(=O)CS(=O)(=O)CCc1ccccc1	2.00
CCCCCCCCS(=O)(=O)C(Cl)(Cl)S(N)(=O)=O	2.30
COc1ccc2c(c1)S(=O)(=O)C(S(N)(=O)=O)C2 (centres undefined)	2.90
NS(=O)(=O)CS(=O)(=O)c1ccc(O)cc1	2.60
NS(=O)(=O)CSCCCc1ccccc1	3.08
NS(=O)(=O)CS(=O)(=O)CCCc1ccccc1	2.28
NS(=O)(=O)CSCCc1ccccc1	3.30
NS(=O)(=O)CSc1ccc(O)cc1	3.46

Now turn to the next molecule.
Value lookup for log10 IC50; key = CCCCCCCCS(=O)(=O)CS(N)(=O)=O 1.34

###

# Test Name: Equilibrium dissociation constant was determined
# Type: ADME
Readout Kind: Kd (nM)
Report as a plain number; the unit nM is understood.

Value lookup for Kd; key = CCCCCCCCS(=O)(=O)C(Cl)S(N)(=O)=O (stereo unspecified) 17

###

# Test Name: physchem
# Description: Acid dissociation constant was determined
Listing of entries alongside the reported pKa.
# answer = number (no unit)

Value lookup for pKa; key = COc1ccc2c(c1)S(=O)(=O)C(S(N)(=O)=O)C2 (stereo unspecified) 8.8

###

# Test Name: Equilibrium dissociation constant of CA complex for enantiomer 1 of compound
# Format: ADME
Readout Kind: pKd
To interpret pKd, take it as minus log10 of a concentration measured in moles per litre.

Value lookup for pKd; key = CCCCCCCCS(=O)(=O)C(F)S(N)(=O)=O (stereo unspecified) 8.45

###

# Test Name: Equilibrium dissociation constant of CA complex for enantiomer 2 of compound
# Type: ADME
Readout Kind: Kd (nM)
Report as a plain number; the unit nM is understood.

Value lookup for Kd; key = CCCCCCCCS(=O)(=O)C(F)S(N)(=O)=O (stereo unspecified) 0.64

###

# Test Name: physchem
Listing of entries alongside the reported pKa.

Use the examples below as a reference point.
Molecule	Reported
NS(=O)(=O)CS(=O)(=O)CCCc1ccccc1	8.4
CCCCCCCCS(=O)(=O)CS(N)(=O)=O	9.4
CCCCCCCCS(=O)(=O)C(Cl)S(N)(=O)=O (stereo not given)	7.7
NS(=O)(=O)CSCCc1ccccc1	9.5
NS(=O)(=O)CSCCCc1ccccc1	9.4
CCCCCCCCS(=O)(=O)C(C)S(N)(=O)=O (stereo not given)	8.9
NS(=O)(=O)CS(=O)(=O)CCc1ccccc1	8.4
NS(=O)(=O)CS(=O)(=O)c1ccc(O)cc1	9.1
NS(=O)(=O)CSc1ccc(O)cc1	10.1

Now turn to the next molecule.
Value lookup for pKa; key = CCCCCCCCS(=O)(=O)C(F)S(N)(=O)=O (stereo not given) 7.5
